- ASSAY DETAILS: NCI Yeast Anticancer Drug Screen. Data for the sgs1 mgt1 strain (AID 161)
- CONDITIONS: S. cerevisiae sgs1 mgt1 strain; at 50.0 µM unless noted
Compounds without any hit were thinned out: in the full panel of roughly 79,000, 15% have a hit. Active and inactive are the calls of the source. Rule as the data show it: active = growth inhibition above about 70%; inactive = the rest.
Assign a class; possible classes are yes for active, no for inactive

| MOLECULE | DISCRETE LABEL |
| --- | --- |
| CSC(SC)c1cc(C)no1 | no |
| O=C(CC(=O)c1ccc(OC(=O)c2ccccc2)cc1O)c1ccccc1 | no |
| Cc1ccc(C(=O)C[n+]2ccc3ccccc3c2)c(O)c1 | no |
| Cn1c2ccc3cc2c(=S)c2cc(ccc21)OCCOCCOCCOCCOCCO3 | no |
| Nc1cc(Nc2ccccc2)nc(=O)[nH]1 | no |

Could you please tell me the result logged for CC(CN(C)C)C(=O)/C=C/c1ccc(Cl)cc1 (stereo not given) in this assay?
no

Could you please tell me the result logged for CCCC(=O)Nc1ccc(C2=NNC(=O)C3CC23)cc1 (stereo not given) in this assay?
no

Could you please tell me the result logged for O=C(/C=C/c1ccc(-c2ccccc2)cc1)c1ccccc1 in this assay?
no

Could you please tell me the result logged for O=C1/C(=C\c2ccccc2)Sc2cc[nH]c21 in this assay?
no

Could you please tell me the result logged for CN(C)C(=S)/N=c1\ssc(=S)n1Cc1cccnc1 in this assay?
no

Could you please tell me the result logged for CN(Cc1ccc2nc(N)nc(N)c2c1)c1ccc(C(=O)NC(CCC(=O)O)C(=O)O)cc1 (stereo not given) in this assay?
yes

Could you please tell me the result logged for c1ccc2nn(C3CCCO3)nc2c1 (stereo not given) in this assay?
no

Could you please tell me the result logged for O=C(NCCCN1CCN(CCCNC(=O)Nc2ccc(N=Nc3ccccc3)cc2)CC1)Nc1ccc(N=Nc2ccccc2)cc1 in this assay?
no

Could you please tell me the result logged for CCCCCCCCCCCCCCCCCCS(=O)(=O)CC(O)CO (stereo not given) in this assay?
no

Could you please tell me the result logged for Cc1cc([N+](=O)[O-])ccc1NC(=O)n1nnc2cc(Cl)ccc21 in this assay?
no

Could you please tell me the result logged for CCOC(C)(Cc1ccccc1[N+](=O)[O-])OCC in this assay?
no

Could you please tell me the result logged for O=C(O)c1ccc(NCC(O)COc2ccc([N+](=O)[O-])cc2)cc1 (stereo not given) in this assay?
no

Could you please tell me the result logged for Cc1nn(C(=O)Cc2ccccc2)c2c1C(c1ccc(Cl)cc1)SC(N)=N2 (stereo not given) in this assay?
no

Could you please tell me the result logged for CCOC(=O)/C(C#N)=C/c1ccc(C)cc1 in this assay?
no
